Test system: Streptococcus pneumoniae
Test: Antibacterial activity against erythromycin-resistant Streptococcus pneumoniae 205
Format: functional
Exercise: for every item that follows, state its recorded MIC.
// return numeric value only (unit: µg/mL, not printed)

The compound listed as CO[C@]1(C)C[C@H](O[C@H]2[C@H](C)[C@@H](O[C@@H]3O[C@H](C)C[C@H](N(C)C)[C@H]3O)[C@@](C)(O)C[C@@H](C)[C@H](O)[C@H](C)CN(C)C[C@H](COCc3ccccc3)OC(=O)[C@@H]2C)O[C@@H](C)[C@@H]1O has a reported MIC of 32

Item: CO[C@]1(C)C[C@H](O[C@H]2[C@H](C)[C@@H](O[C@@H]3O[C@H](C)C[C@H](N(C)C)[C@H]3O)[C@@](C)(O)C[C@@H](C)[C@H](O)[C@H](C)CN(C)[C@@H](COCc3ccccc3)COC(=O)[C@@H]2C)O[C@@H](C)[C@@H]1O | MIC: 128

CO[C@]1(C)C[C@H](O[C@H]2[C@H](C)[C@@H](O[C@@H]3O[C@H](C)C[C@H](N(C)C)[C@H]3O)[C@@](C)(O)C[C@@H](C)[C@H](O)[C@H](C)CN(C)C[C@@H](COCc3ccccc3)OC(=O)[C@@H]2C)O[C@@H](C)[C@@H]1O has a reported MIC of 64

Entry source: ChEMBL document CHEMBL1671842
